- system tested: T1, myotoxin II from Bothrops asper (Bothrops asper, UniProt P24605)
- T1 construct: also called Mt; M2; source: purified from Bothrops asper venom (CM-Sephadex C25, RP-HPLC), biotinylated
- T1 sequence (P24605 17-137): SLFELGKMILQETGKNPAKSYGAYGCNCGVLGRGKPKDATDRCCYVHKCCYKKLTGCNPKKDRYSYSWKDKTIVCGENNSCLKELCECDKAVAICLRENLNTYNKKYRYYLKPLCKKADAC
- protocol text: BLI; […]) biosensors ([…] (0, 1, 10, 100 nM; […]
- setup conditions: both partners purified
So I've got a bunch of binders here, and I need their Kd values.
Give bare numbers, in pM.

List the reported Kd of each binder below.
1. TPL0039_05_B04 IgG1 (LALA + YTE) (antibody, V domains shown, also called B04(LALA + YTE); copies: 2 + 2) VH: EVQLLESGGGVVQPGRSLRLSCAASGFTFSSYGMHWVRQAPGKGLEWVAVISYDGSNKYYADSVKGRFTISRDNSKNTLYLQMNSLRAEDTAVYYCARVGENEAFDIWGQGTMVTVSS VL: NFMLTQPHSVSESPGKTVTISCTRSSGSIARNYVQWYQQRPGSAPTTVIYEDNQRPSGVPDRFSGSIDSSSNSASLTISGLKTEDEADYYCQSYDSSTVVFGGGTKLTVL
2. TPL0039_05_F04 IgG1 (LALA + YTE) (antibody, V domains shown, also called F04(LALA + YTE); copies: 2 + 2) VH: QVQLVESGGGVVQPGRSPRLSCAASGFTFSSYGMHWVRQAPGKGLEWVAVISYDGSNKYYADSVKGRFTISRDNSKNTLYLQMNSLRAEDTAVYYCAKDLEYSSSSWGQGTLVTVSS VL: NFMLTQPHSVSESPGKTVTISCTRSSGSIASNYVQWFQQRPGSSPTTVIYEDDQRPSGVPDRFSGSIDSSSNSASLTISGLKTEDEATYFCQSYDSSTVVFGGGTKVTVL

## Result
[75.8, 18.1]
